These measurements were taken from patent US8686024B2.

- target.system: acetylcholine esterase (AChE) (Mus musculus, UniProt P21836)
- Construct: brain homogenate and serum of mouse were used as choline esterase enzyme sources; from tissue; host or cells: mouse brain homogenate
- Sequence (P21836 32-614): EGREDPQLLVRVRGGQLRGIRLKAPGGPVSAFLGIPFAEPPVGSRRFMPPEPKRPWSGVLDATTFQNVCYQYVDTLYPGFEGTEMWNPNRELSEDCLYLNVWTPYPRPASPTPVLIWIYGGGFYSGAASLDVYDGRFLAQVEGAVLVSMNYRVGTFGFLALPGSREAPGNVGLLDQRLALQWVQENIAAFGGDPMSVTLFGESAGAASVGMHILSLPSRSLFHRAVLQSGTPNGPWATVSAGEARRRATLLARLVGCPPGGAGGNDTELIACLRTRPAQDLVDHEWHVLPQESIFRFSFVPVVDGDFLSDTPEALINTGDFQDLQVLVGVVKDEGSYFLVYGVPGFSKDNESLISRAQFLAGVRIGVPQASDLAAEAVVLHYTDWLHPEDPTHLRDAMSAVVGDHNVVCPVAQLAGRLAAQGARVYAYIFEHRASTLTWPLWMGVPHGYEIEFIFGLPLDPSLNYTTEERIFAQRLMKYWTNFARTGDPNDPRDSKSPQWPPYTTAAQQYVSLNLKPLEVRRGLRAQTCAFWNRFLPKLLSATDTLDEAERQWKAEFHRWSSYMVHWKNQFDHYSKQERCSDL
- assay.details: In vitro assay for choline esterase inhibition (Ellman method), acetylthiocholine substrate, mouse brain homogenate
- Format: biochemical
- condition.details: read-out: AChE inhibitory activity IC50
pIC50: −log10 of the molar value.

compound	pIC50
Cc1ccc(NC(=O)Oc2ccc3c(c2)CCN3Cc2ccccc2)cc1 [Example 55]	< 4.00

====

- target.system: butyrylcholine esterase (BuChE) (Mus musculus, UniProt Q03311)
- Construct: brain homogenate and serum of mouse were used as choline esterase enzyme sources; from tissue; host or cells: mouse serum
- Sequence (Q03311 30-603): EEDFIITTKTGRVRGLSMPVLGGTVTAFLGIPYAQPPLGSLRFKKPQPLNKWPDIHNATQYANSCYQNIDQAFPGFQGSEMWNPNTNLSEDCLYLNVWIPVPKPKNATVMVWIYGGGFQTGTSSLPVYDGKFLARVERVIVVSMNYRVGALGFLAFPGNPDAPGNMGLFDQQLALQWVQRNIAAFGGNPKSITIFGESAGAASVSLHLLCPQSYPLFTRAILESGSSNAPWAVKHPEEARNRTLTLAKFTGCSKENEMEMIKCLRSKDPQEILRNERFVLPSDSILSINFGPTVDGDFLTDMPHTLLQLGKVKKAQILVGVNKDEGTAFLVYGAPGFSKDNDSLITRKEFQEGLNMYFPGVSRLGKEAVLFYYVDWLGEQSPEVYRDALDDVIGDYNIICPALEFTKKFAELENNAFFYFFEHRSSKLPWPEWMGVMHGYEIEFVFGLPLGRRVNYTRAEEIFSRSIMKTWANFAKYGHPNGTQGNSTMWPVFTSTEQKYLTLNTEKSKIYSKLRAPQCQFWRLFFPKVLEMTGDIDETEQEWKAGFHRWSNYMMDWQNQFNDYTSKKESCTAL
- assay.details: In vitro assay for choline esterase inhibition (Ellman method), butyrylthiocholine substrate, mouse serum
- Type: biochemical
- condition.details: selectivity for BuChE inhibition: IC50 (AchE)/IC50 (BuChE)
// reported Ratio AChE/BuChE for each item listed

compound	Ratio AChE/BuChE
O=C(Nc1ccc2c(c1)CCC2)Oc1ccc2c(c1)CCN2Cc1ccccc1 [Example 85, 1-benzylindolin-5-yl 5-indanylcarbamate]	>240
Cc1ccc(CCNC(=O)Oc2ccc3c(c2)CCN3Cc2ccccc2)c(C)c1	>2200
CCNC(=O)Oc1ccc2c(c1)CCN2Cc1ccccc1 [Example 57, 1-benzylindolin-5-yl ethylcarbamate]	2000
O=C(NC1CCCCCCC1)Oc1ccc2c(c1)CCN2Cc1ccccc1 [Example 45, 1-benzylindolin-5-yl cyclooctylcarbamate]	>4800
CC(C)c1ccc(NC(=O)Oc2ccc3c(c2)CCN3Cc2ccc(O)cc2)cc1	>120
CC(C)c1ccc(CCNC(=O)Oc2ccc3c(c2)CCN3Cc2ccccc2)cc1	>290
COc1ccc(NC(=O)Oc2ccc3c(c2)CCN3Cc2ccccc2)cc1	>1000
CC(C)c1ccc(NC(=O)Oc2ccc3c(c2)CCN3Cc2ccccc2O)cc1	>180
CN(C)C(=O)Oc1ccc2c(c1)CCN2Cc1ccccc1	76
Cc1ccc(NC(=O)Oc2ccc3c(c2)CCN3Cc2ccccc2)cc1C	>630
O=C(Nc1ccc2c(c1)OCO2)Oc1ccc2c(c1)CCN2Cc1ccccc1	38
CC(C)c1ccc(NC(=O)Oc2ccc3c(c2)CCN3Cc2cccc(O)c2)cc1	>220
COc1ccccc1CCNC(=O)Oc1ccc2c(c1)CCN2Cc1ccccc1	330
O=C(NCCc1ccncc1)Oc1ccc2c(c1)CCN2Cc1ccccc1	240
CC(C)c1ccc(NC(=O)Oc2ccc3c(c2)CCN3Cc2cccnc2)cc1	>210
O=C(NCCC1CCN(Cc2ccccc2)CC1)Oc1ccc2c(c1)CCN2Cc1ccccc1	63
Cc1ccc(CCNC(=O)Oc2ccc3c(c2)CCN3Cc2ccccc2)cc1	>1700

====

- target.system: butyrylcholine esterase (BuChE) (Mus musculus, UniProt Q03311)
- Construct: brain homogenate and serum of mouse were used as choline esterase enzyme sources; from tissue; host or cells: mouse serum
- assay.details: In vitro assay for choline esterase inhibition (Ellman method), butyrylthiocholine substrate, mouse serum
- Assay type: biochemical
- condition.details: mouse serum, butyrylthiocholine, absorbance at 415 nm; read-out: BuChE inhibitory activity IC50
quantity: log10(IC50) (log10 of the value in nM)

molecule	target.system	log10(IC50)
CCCCCCNC(=O)Oc1ccc2c(c1)CCN2Cc1ccccc1 [Example 17, 1-benzylindolin-5-yl n-hexylcarbamate]	butyrylcholine esterase (BuChE) (Mus musculus, UniProt Q03311)	1.20
O=C(NCc1ccccn1)Oc1ccc2c(c1)CCN2Cc1ccccc1 [Example 102]	butyrylcholine esterase (BuChE) (Mus musculus, UniProt Q03311)	2.11
Cc1ccccc1CCNC(=O)Oc1ccc2c(c1)CCN2Cc1ccccc1 [Example 115]	butyrylcholine esterase (BuChE) (Mus musculus, UniProt Q03311)	1.00
Cc1ccc(NC(=O)Oc2ccc3c(c2)CCN3Cc2ccccc2)cc1 [Example 55]	butyrylcholine esterase (BuChE) (Mus musculus, UniProt Q03311)	2.46
CCNC(=O)Oc1ccc2c(c1)CCN2Cc1ccccc1 [Example 57, 1-benzylindolin-5-yl ethylcarbamate]	butyrylcholine esterase (BuChE) (Mus musculus, UniProt Q03311)	1.53
O=C(Nc1ccc2c(c1)CCO2)Oc1ccc2c(c1)CCN2Cc1ccccc1 [Example 14]	butyrylcholine esterase (BuChE) (Mus musculus, UniProt Q03311)	1.61
O=C(NC1CCCc2ccccc21)Oc1ccc2c(c1)CCN2Cc1ccccc1 (stereo not drawn) [Example 96]	butyrylcholine esterase (BuChE) (Mus musculus, UniProt Q03311)	1.23
O=C(NCCc1cccnc1)Oc1ccc2c(c1)CCN2Cc1ccccc1 [Example 120]	butyrylcholine esterase (BuChE) (Mus musculus, UniProt Q03311)	1.38
O=C(NC1CCCCC1)Oc1ccc2c(c1)CCN2Cc1ccccn1 [Example 149]	butyrylcholine esterase (BuChE) (Mus musculus, UniProt Q03311)	1.76

====

Recorded IC50 by entry
- target.system: acetylcholine esterase (AChE) (Mus musculus)
- Construct: brain homogenate and serum of mouse were used as choline esterase enzyme sources; from tissue; host or cells: mouse brain homogenate
- assay.details: In vitro assay for choline esterase inhibition (Ellman method), acetylthiocholine substrate, mouse brain homogenate
- Format: biochemical

compound	IC50
COc1ccc(NC(=O)Oc2ccc3c(c2)CCN3Cc2ccccc2)cc1OC	> 100 µM
CN(C)c1ccc(NC(=O)Oc2ccc3c(c2)CCN3Cc2ccccc2)cc1	> 100 µM
O=C(NCCC1CCN(Cc2ccccc2)CC1)Oc1ccc2c(c1)CCN2Cc1ccccc1	2.7 µM
CC(C)c1ccc(NC(=O)Oc2ccc3c(c2)CCN3Cc2ccccc2O)cc1	> 100 µM
O=C(NCCc1ccc(Cl)cc1Cl)Oc1ccc2c(c1)CCN2Cc1ccccc1	> 100 µM
CN(CC1CCOCC1)C(=O)Oc1ccc2c(c1)C(C)(C)CN2Cc1ccccc1	93 µM
CC(C)c1ccc(CCNC(=O)Oc2ccc3c(c2)CCN3Cc2ccccc2)cc1	> 100 µM
CCCCCC(C)NC(=O)Oc1ccc2c(c1)CCN2Cc1ccccc1 (centres unmarked) [Example 50, 1-benzylindolin-5-yl 2-heptylcarbamate]	> 100 µM

====

- target.system: acetylcholine esterase (AChE) (Mus musculus)
- Construct: brain homogenate and serum of mouse were used as choline esterase enzyme sources; from tissue; host or cells: mouse brain homogenate
- assay.details: In vitro assay for choline esterase inhibition (Ellman method), acetylthiocholine substrate, mouse brain homogenate
- Format: biochemical
- condition.details: mouse brain homogenate, acetylthiocholine, absorbance at 415 nm; read-out: AChE inhibitory activity IC50
Reported IC50 values for the following compounds.

compound	limit.operator	IC50 / µM
O=C(NCc1ccccn1)Oc1ccc2c(c1)CCN2Cc1ccccc1	=	10
O=C(NCC1CCCCC1)Oc1ccc2c(c1)CCN2Cc1ccccn1	=	1.2
O=C(NC1CCCc2ccccc21)Oc1ccc2c(c1)CCN2Cc1ccccc1 (stereo not shown)	>	100
O=C(NCc1ccncc1)Oc1ccc2c(c1)CCN2Cc1ccccc1	=	9.3
CCCCCCNC(=O)Oc1ccc2c(c1)CCN2Cc1ccccc1 [Example 17, 1-benzylindolin-5-yl n-hexylcarbamate]	=	8
Cc1ccccc1CCNC(=O)Oc1ccc2c(c1)CCN2Cc1ccccc1	=	12
CCNC(=O)Oc1ccc2c(c1)CCN2Cc1ccccc1 [Example 57, 1-benzylindolin-5-yl ethylcarbamate]	=	69
O=C(NCc1ccco1)Oc1ccc2c(c1)CCN2Cc1ccccc1 [Example 18, 1-benzylindolin-5-yl furfurylcarbamate]	=	1.8
COc1cccc(CNC(=O)Oc2ccc3c(c2)CCN3Cc2ccccc2)c1	=	1.6
O=C(NCCc1ccc(Cl)cc1)Oc1ccc2c(c1)CCN2Cc1ccccc1	=	5.5
CN(C)c1ccc(NC(=O)Oc2ccc3c(c2)CCN3Cc2ccccn2)cc1	=	1.1
CC(C)c1ccc(NC(=O)Oc2ccc3c(c2)CCN3Cc2ccc[nH]2)cc1	>	100
C=C(C)CNC(=O)Oc1ccc2c(c1)CCN2Cc1ccccc1	=	46
CC(C)CNC(=O)Oc1ccc2c(c1)CCN2Cc1ccccc1	=	46
O=C(NCc1ccccc1)Oc1ccc2c(c1)CCN2 [Example 127, indolin-5-yl benzylcarbamate]	=	0.75
CC(C)c1ccc(NC(=O)Oc2ccc3c(c2)C(C)CN3Cc2ccccc2)cc1 (stereo not shown)	>	100
O=C(NCc1ccccc1)Oc1ccc2c(c1)CCN2Cc1ccccn1	=	0.11
O=C(NC1CC1)Oc1ccc2c(c1)CCN2Cc1ccccc1	=	36
CCCCCCNC(=O)Oc1ccc2c(c1)CCN2Cc1ccccn1	=	0.25

====

Reported melting point is given for each of the following compounds.

compound	melting point
CC(C)c1ccc(NC(=O)Oc2ccc3c(c2)CCN3Cc2ccc3ccccc3c2)cc1	136 to 140 °C
CC(C)c1ccc(NC(=O)Oc2ccc3c(c2)CCN3Cc2ccco2)cc1	168 to 171 °C
O=C(Nc1ccccc1)Oc1ccc2c(c1)CCN2Cc1ccccc1	105 to 112 °C
CC(C)c1ccc(NC(=O)Oc2ccc3c(c2)CCN3Cc2cccc3ncccc23)cc1	195 to 199 °C
CC(C)c1ccc(NC(=O)Oc2ccc3c(c2)CCN3Cc2ccc3cc[nH]c3c2)cc1	194 to 196 °C
COc1ccc(NC(=O)Oc2ccc3c(c2)CCN3)cc1	220 to 224 °C
CNC(=O)Oc1ccc2c(c1)CCN2	109 to 112 °C
O=C(Nc1ccncc1)Oc1ccc2c(c1)CCN2Cc1ccccc1	132 to 136 °C
O=C(NCC1CCCCC1)Oc1ccc2c(c1)CCN2	129 to 133 °C
O=C(Nc1ccc(-c2ccccc2)cc1)Oc1ccc2c(c1)CCN2Cc1ccccc1	175 to 178 °C
CC(C)c1ccc(NC(=O)Oc2ccc3c(c2)CCN3)cc1	166 to 170 °C
CC(C)c1ccc(NC(=O)Oc2ccc3c(c2)CCN3Cc2ccc3ccccc3n2)cc1	150 to 152 °C
O=C(Nc1ccc([N+](=O)[O-])cc1)Oc1ccc2c(c1)CCN2Cc1ccccc1	225 to 229 °C
COC(=O)c1ccc(CN2CCc3cc(OC(=O)Nc4ccc(C(C)C)cc4)ccc32)cc1	149 to 153 °C
CC(C)c1ccc(NC(=O)Oc2ccc3c(c2)CCN3Cc2ccc(O)c(Cl)c2)cc1	170 to 174 °C
CC(C)c1ccc(NC(=O)Oc2ccc3c(c2)CCN3Cc2cc(N(C)C)c3ccccc3c2)cc1	75 to 80 °C
O=C(Nc1ccc2ccccc2c1)Oc1ccc2c(c1)CCN2Cc1ccccc1	161 to 167 °C
O=C(Nc1ccc(Oc2ccccc2)cc1)Oc1ccc2c(c1)CCN2Cc1ccccc1	155 to 160 °C
COc1ccc(NC(=O)Oc2ccc3c(c2)CCN3)cc1OC	140 to 144 °C
O=C(Nc1ccc(C2CCCCC2)cc1)Oc1ccc2c(c1)CCN2Cc1ccccc1	171 to 174 °C
COc1cc(CN2CCc3cc(OC(=O)Nc4ccc(C(C)C)cc4)ccc32)ccc1N(C)C	152 to 153 °C
CCCN(CCC)C(=O)C1Cc2cc(OC(=O)Nc3ccc(C(C)C)cc3)ccc2N1Cc1ccccc1 (stereo not shown)	62 to 66 °C
